Method: Metabolic stability in human liver microsomes
Assay type: in vitro ADME
Measurement Setup: human liver microsomes, 0.5 μM compound, 1 mg/mL protein, 1 mM NADPH, pH 7.4, 37° C.; "stable" = no degradation could be confirmed
Readout Name: half-life at 0.5 μM (h)

See these solved cases before continuing.
>  <Mol>
CCC(=O)Nc1ccc(/C=C/c2ccc(F)cc2F)cc1C(=O)O

>  <Result Units>
h

>  <half-life at 0.5 μM>
3.55

$$$$
>  <Mol>
CCC(=O)Nc1ccc(COc2ccc(F)c(C(F)(F)F)c2)cc1C(=O)O

>  <Result Units>
h

>  <half-life at 0.5 μM>
1.73

$$$$

A = CCC(=O)Nc1ccc(/C=C/c2ccc(Cl)c(Cl)c2)cc1C(=O)O
B = CCC(=O)Nc1ccc(/C=C/c2ccc(C(F)(F)F)cc2C(F)(F)F)cc1C(=O)O
C = CCC(=O)Nc1ccc(OCc2ccc(C(F)(F)F)cc2Br)cc1C(=O)O
Please put the entries in order of rising half-life at 0.5 μM. Give the labels in the order specified. A, C, B
